Tested on: LOC_OS07G06570-cb004
Test summary: thermal shift delta Tm vs DMSO control; higher = stronger stabilization (binding);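 note: purified Escherichia coli-expressed rice kinase domain construct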
Condition details: 12.5 µM; protein concentration 2 µM
Where a name gives a salt, the structure may show the parent alone.
Measured thermal shift delta Tm values are reported for all entries that follow.
Parameter measured: thermal shift delta Tm (°C)

Molecule	Quantitative readout
O=C(Nc1cnn2ccc(N3CCC[C@@H]3c3cc(F)ccc3F)nc12)N1CC[C@H](O)C1 [Larotrectinib (LOXO-101) sulfate]	0.63
O=C(O)c1ccc2c(c1)nc(Nc1cccc(Cl)c1)c1ccncc12	1.59
NC(=O)c1cnc2[nH]ccc2c1N[C@@H]1[C@@H]2CC3C[C@H]1C[C@@](O)(C3)C2	1.29
CC(=O)Nc1cccc(-n2c(=O)n(C3CC3)c(=O)c3c(Nc4ccc(I)cc4F)n(C)c(=O)c(C)c32)c1	0.26
Cc1[nH]c(/C=C2\C(=O)Nc3ccc(S(=O)(=O)Cc4c(Cl)cccc4Cl)cc32)c(C)c1C(=O)N1CCC[C@@H]1CN1CCCC1	0.77
NC(=O)c1cnc(N[C@@H]2CCCC[C@@H]2N)nc1Nc1cccc(-n2nccn2)c1	1.27
CNC(=O)c1ccccc1Nc1nc(Nc2ccc(N3CCOCC3)cc2OC)ncc1Cl	1.58
C=CC(=O)Nc1cccc(Oc2nc(Nc3ccc(N4CCN(C)CC4)cc3)nc3ccsc23)c1	2.96
CC(C)(C)c1cc(NC(=O)Nc2ccc(-c3cn4c(n3)sc3cc(OCCN5CCOCC5)ccc34)cc2)no1	1.04
N#Cc1c(O)c2c(-c3ccc(-c4ccccc4O)cc3)csc2[nH]c1=O	1.2
COc1cc(N2CCC(N3CCN(C)CC3)CC2)ccc1Nc1ncnc(Nc2ccccc2S(=O)(=O)C(C)C)n1	1.77
Cc1c(NC(=O)c2ccc(C(C)(C)C)cc2)cccc1-c1cn(C)c(=O)c(Nc2ccc(C(=O)N3CCOCC3)cc2)n1	1.05
O=C1Cc2c([nH]c3ccc(Br)cc23)-c2ccccc2N1	-0.23
CO[C@H]1C[C@@H]2CC[C@@H](C)[C@@](O)(O2)C(=O)C(=O)N2CCCC[C@H]2C(=O)O[C@H]([C@H](C)C[C@@H]2CC[C@H](n3cnnn3)[C@H](OC)C2)CC(=O)[C@H](C)/C=C(\C)[C@@H](O)[C@@H](OC)C(=O)[C@H](C)C[C@H](C)/C=C/C=C/C=C/1C	1.43
COC1(c2sc3c(N4CCOCC4)nc(-c4cnc(N)nc4)nc3c2C)COC1	0.85

====

Test system: LOC_OS01G13800-cb001
Test summary: thermal shift delta Tm vs DMSO control; higher = stronger stabilization (binding)
Condition details: 12.5 µM; protein concentration 2 µM
Recorded thermal shift delta Tm, one value per entry.

Molecule	thermal shift delta Tm / °C
Cc1cn(-c2cc(NC(=O)c3ccc(C)c(Nc4nccc(-c5cnccn5)n4)c3)cc(C(F)(F)F)c2)cn1 [Radotinib]	0.87
O=C1c2c(O)cc(O)cc2OC(c2ccc(O)c(O)c2)C1O (centres undefined) [Taxifolin (Dihydroquercetin)]	0.01
Nc1ncnc2n[nH]c(Nc3ccc(F)cc3)c12	-0.28
CC(C)n1nc(-c2ccc3oc(N)nc3c2)c2c(N)ncnc21	-0.13

====

Tested on: LOC_OS04G41100-cb001
Sequence (whole entry): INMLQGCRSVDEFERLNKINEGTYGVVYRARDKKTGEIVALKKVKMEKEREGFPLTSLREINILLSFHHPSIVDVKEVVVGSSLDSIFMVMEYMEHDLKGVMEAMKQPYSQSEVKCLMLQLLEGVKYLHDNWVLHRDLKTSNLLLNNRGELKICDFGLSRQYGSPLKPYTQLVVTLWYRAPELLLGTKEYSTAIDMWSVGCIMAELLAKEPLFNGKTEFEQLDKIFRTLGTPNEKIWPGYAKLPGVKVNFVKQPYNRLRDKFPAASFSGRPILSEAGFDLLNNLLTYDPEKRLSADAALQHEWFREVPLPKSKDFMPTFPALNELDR
Test summary: thermal shift delta Tm vs DMSO control; higher = stronger stabilization (binding)
Condition details: 12.5 µM; protein concentration 2 µM
Each record here notes measured thermal shift delta Tm.

Compound	System name	Uom	thermal shift delta Tm
CCN1CCN(Cc2ccc(C(=O)Nc3ccc(C)c(Oc4ccc5c(c4)CC(=O)N5)c3)cc2C(F)(F)F)CC1	LOC_OS04G41100-cb001	°C	0.5
COc1cc2c(Oc3ccc(NC(=O)C4(C(=O)Nc5ccc(F)cc5)CC4)cc3F)ccnc2cc1OCCCN1CCOCC1	LOC_OS04G41100-cb001	°C	1.7
Cc1cc(C(=O)Nc2nc3cccc(Cl)c3n2[C@@H]2CCCCN(C(=O)/C=C/CN(C)C)C2)ccn1 [Nazartinib (EGF816, NVS-816)]	LOC_OS04G41100-cb001	°C	0.6
O=C1NC(=O)[C@@H](c2cn3c4c(cccc24)CCC3)[C@@H]1c1c[nH]c2ccccc12 [Tivantinib (ARQ 197)]	LOC_OS04G41100-cb001	°C	0.36
CCS(=O)(=O)Nc1ccc2c(c1)/C(=C(/Nc1ccc(CN3CCCCC3)cc1)c1ccccc1)C(=O)N2	LOC_OS04G41100-cb001	°C	0.76
CNC(=O)c1cccc(-c2ccc3c(N4CCOC[C@@H]4C)nc(N4CCOC[C@@H]4C)nc3n2)c1	LOC_OS04G41100-cb001	°C	0.11
CN1CC(O)C2=C/C(=N/NC(N)=O)C(=O)C=C21 (configuration not stated)	LOC_OS04G41100-cb001	°C	0.2
